The measured values listed here are drawn from PubChem BioAssay (NCI).

Test system: OVCAR-4 ovarian
Test: NCI-60 one-dose screen, 48 h (100 = growth as untreated, 0 = no growth, -100 = all killed)
Conditions: 10 µM unless noted
Compounds without any hit were thinned out: in the full panel of roughly 83,000, 20% have a hit.
endpoint_name: growth (%)
Give bare numbers, in %.

                                   molecule     assay_target  reported_value
0  O=C(Nc1ccc(-n2ccc3c(NC(=O)c4ccccc4)nccc32)cc1)c1cccc(C(F)(F)F)c1  OVCAR-4 ovarian             108
1  COC(=O)c1ccc(NC(N)=NCC(C)(C)COc2ccc(C(F)(F)F)cc2)nc1  OVCAR-4 ovarian            40.6
2  Cc1ccc2oc(=O)cc(C3C(C#N)=C(N)Oc4c3ccc3ccccc43)c2c1 (stereo not given)  OVCAR-4 ovarian            87.8
3  Nc1nccc2c1ccn2-c1ccc(NC(=O)c2ccc(N3CCOCC3)c(C(F)(F)F)c2)cc1  OVCAR-4 ovarian            77.4
4            NN=C(c1ccc(Cl)cc1)c1ccc(Cl)cc1  OVCAR-4 ovarian             103

Please supply growth for each of the following items, keeping them in order.
1. Cn1cnc([N+](=O)[O-])c1N1c2ccncc2Sc2ccncc21
2. O=S(=O)(O)c1ccc(F)cc1
3. CC(C)[C@@H]1NC(=O)[C@]2(C)CSC(=N2)c2ccnc(c2)CNC(=O)C[C@@H](/C=C/CCS)OC1=O

a:
1. 179
2. 105
3. 27.3

Please supply growth for each of the following items, keeping them in order.
1. CCn1c(SC)nnc1-c1cc2c([nH]c3ccccc32)c(-c2cccc(O)c2)n1
2. CC(C)C1(C(C)C)NC(=O)NC1=O
3. CCOc1ccc(NC2=C(Cl)C(=O)c3ccccc3C2=O)cc1
4. COc1ccc2c(-c3ccc(F)cc3)c(C#N)c(=NC(C)=O)oc2c1

a:
1: 12.5; 2: 107; 3: 91.9; 4: 92.5

Please supply growth for each of the following items, keeping them in order.
1. COc1ccc(Cn2cc3c(c2-c2cc(OC)c(OC)c(OC)c2)CCc2c(CO)noc2-3)cc1
2. FC(F)(F)c1cccc([Si](F)(c2cccc(C(F)(F)F)c2)c2cccc(C(F)(F)F)c2)c1
3. NC(CCCC(N)C(=O)c1ccccc1)C(=O)O (stereo not given)
4. COc1ccc(C(=O)NC(=O)Nc2ccc3c(c2)NC(=O)/C3=C\c2[nH]c(C)c(CCC(=O)O)c2C)c(F)c1
5. O=c1cc(Cl)[nH]c(=O)[nH]1
6. CC(=O)Oc1ccc(C(OC(C)=O)OC(C)=O)cc1
7. Cc1cn(C2CC(N=[N+]=[N-])C(COP(=O)(O)OP(=O)(O)OP(=O)(O)O)O2)c(=O)[nH]c1=O (stereo not given)

a:
[68.9, 65.9, 97.3, 77, 109, 117, 108]
